System: HCC1569
experimentalProtocol: H1.0 immunofluorescence intensity relative to DMSO (% of DMSO); higher = stronger H1.0 induction, active = 140 or more
experimentalConditions: concentration: 10 µM; 24 h
I'd appreciate it if you could label each record using H1.0 immunofluorescence intensity and these ranges: class 1 (below 90), class 2 (90 to below 100), class 3 (100 or more)

For orientation, consider the following solved cases.
Exercise: Category of NC(=O)c1cccc(NC(=O)/C=C/c2c[nH]c3ccccc23)c1 [(E)-3-(3-(1H-indol-3-yl)acrylamido)benzamide] , please.
Solution: class 3

Exercise: // repeat for `COc1cc2ncnc(Nc3cccc(Cl)c3)c2cc1OC` and report
Solution: class 3

Exercise: // repeat for `O=C1c2c(O)cc(O)cc2O[C@H](c2cc(O)c(O)c(O)c2)[C@H]1O` and report
Solution: class 2

Exercise: // repeat for CC(Oc1c(Cl)cccc1Cl)C1=NCCN1.Cl (stereo not drawn) [Lofexidine.HCl] and report
Solution: class 2

Exercise: // repeat for COCCOC(=O)C1=C(C)NC(C)=C(C(=O)OC(C)C)C1c1cccc([N+](=O)[O-])c1 (stereo not drawn) and report
Solution: class 3

Lab note: next compound to report on.
Exercise: Category of CCCNC1CCc2nc(N)sc2C1 (stereo not drawn) [Pramipexole] , please.
Solution: class 3

* * *

System: TDF
experimentalProtocol: H1.0 immunofluorescence intensity relative to DMSO (% of DMSO); higher = stronger H1.0 induction, active = 120 or more
experimentalConditions: concentration: 10 µM; 24 h
One label from this list, please: active, inactive

For orientation, consider the following solved cases.
Exercise: What classification did `O=C(O)c1ccc(NC(=O)[C@H](CC2CCCC2)n2cnc(C(F)(F)F)c2)nc1` end up with in this test?
Solution: inactive

Exercise: // repeat for COc1ccc(CC(=O)NC(N=C(NC#N)Nc2cccc3ncccc23)C(C)(C)C)cc1OC (centres undefined) and report
Solution: inactive

Exercise: // repeat for `O=C(Nc1ccccc1)c1cc([N+](=O)[O-])ccc1Cl` and report
Solution: inactive

Exercise: // repeat for `COc1ccc(S(=O)(=O)Nc2cc(Cl)cc(Cl)c2OC)cc1N1CCNCC1.Cl` and report
Solution: inactive

Exercise: // repeat for `CCCCCC=CCC=CCCCCCCCC(=O)NCC(=O)O` and report
Solution: inactive

---
Exercise: What classification did CCCCCCCC(=O)OCC(CO)OC(=O)CCCCCCC (centres undefined) end up with in this test?
Solution: inactive

Exercise: // repeat for CCCC1CC(C(=O)NC(C(C)O)C2OC(SC)C(O)C(O)C2O)N(C)C1 (centres undefined) and report
Solution: inactive

Exercise: // repeat for `O=C1Nc2ccccc2C1=Cc1c(Cl)[nH]c2ccccc12` and report
Solution: active

Exercise: // repeat for `O=C(O)c1cc(=O)c2ccc(Cl)cc2[nH]1` and report
Solution: inactive

* * *

Tested on: TDF
experimentalProtocol: cell number relative to DMSO (% of DMSO); higher = more cells (less growth inhibition / toxicity)
experimentalConditions: concentration: 10 µM; 24 h
Tag: TRUE if measured cell number is not below 100, FALSE if it is.

Exercise: Tell me whether cell number is at least 100 here: CN1C(CC(=O)c2ccccc2)CCCC1CC(O)c1ccccc1.Cl (configuration not stated)
Solution: FALSE

Exercise: // repeat for `O.O=P(O)(O)C(O)(Cn1ccnc1)P(=O)(O)O` and report
Solution: FALSE

Exercise: // repeat for O=C1Cc2c([nH]c3ccc(Br)cc23)-c2ccccc2N1 [Kenpaullone] and report
Solution: FALSE

Exercise: // repeat for CCCCCC=CCC1OC1C(O)C=CCC=CCCCC(=O)O (configuration not stated) and report
Solution: FALSE

Exercise: // repeat for CCCN(CCC)CCc1cccc2c1CC(=O)N2.Cl [Ropinirole hydrochloride] and report
Solution: FALSE

Exercise: // repeat for CC#CC1(O)CCC2C3CCC4=CC(=O)CCC4=C3C(c3ccc(N(C)C)cc3)CC21C (configuration not stated) and report
Solution: TRUE

Exercise: // repeat for Nc1nc(Cl)nc2c1ncn2C1OC(CO)C(O)C1O (configuration not stated) and report
Solution: TRUE

Exercise: // repeat for C=C1CCC(O)CC1=CC=C1CCCC2(C)C1CCC2C(C)CCCC(C)(C)O (configuration not stated) and report
Solution: TRUE

Exercise: // repeat for Oc1cc2c(cc1O)CN(C(=S)NCCc1ccc(Cl)cc1)CCC2 [Capsazepine] and report
Solution: TRUE

Exercise: // repeat for `CCS(=O)(=O)CCn1c([N+](=O)[O-])cnc1C` and report
Solution: TRUE

Exercise: // repeat for `CCCCCCCCCCOCCC(=O)O` and report
Solution: TRUE

Exercise: // repeat for COc1ccnc(CS(=O)c2nc3ccc(OC(F)F)cc3[nH]2)c1OC (configuration not stated) and report
Solution: TRUE
